meta.source: the DeepSol protein solubility set

Test: soluble on expression in E. coli; label from the status in PepcDB or PDB records
endpointLabel: soluble on expression in E. coli

MKKIALTLAATSITLVSYSAFSAQDAEHVRLATTTSTYHSGLLDYLLPQFEKDTGYKVDVIAAGTGKALKMGENGDVDLVMTHAPKAEGTFVEKGYGVLPRKLMYNDFVIVGPKADPAKIKDDESVLDVFKEIANKNATFISRGDDSGTHKKEMGFWAQTKIEPNFGGYRSVGQGMGPTLNMASEMQGYTMSDRGTWLAYQNKLDLEILFQGDEKLFNPYQVILVNPERYPTINYQGAKAFSDWLVNPRGQELINGFRLNGKQLFVANAESK :: not soluble
MKLVVCSESDTAGQNIKDNLLTFADFEEKDVGEFKLYLSDEFYIAETKERLIYADHIDEKLAKYIDFEEILFASRHSSKDGRKIFTVHVSGNVGTADFGGKPYSLAKPSPQTMKNYVLALRERLDRKPEFEFTMEVTHHGPSEISKPSAFYEIGSTEEEWKDREAAEVVAEAMLDAIRAEKMDWNVAVGVGGTHYAPRQTEIMLTTTFTFGHNFAKYTFEHLTAEFLVKAVKLSEAEYIIIDEKSVNSAVKKIVNEAAEVAGVEVLKSKKVKKDFRLV :: soluble
MSEHQSLPAPEASTEVRVAIVGVGNCASSLVQGVEYYYNADDTSTVPGLMHVRFGPYHVRDVKFVAAFDVDAKKVGFDLSDAIFASENNTIKIADVAPTNVIVQRGPTLDGIGKYYADTIELSDAEPVDVVQALKEAKVDVLVSYLPVGSEEADKFYAQCAIDAGVAFVNALPVFIASDPVWAKKFTDARVPIVGDDIKSQVGATITHRVLAKLFEDRGVQLDRTMQLNVGGNMDFLNMLERERLESKKISKTQAVTSNLKREFKTKDVHIGPSDHVGWLDDRKWAYVRLEGRAFGDVPLNLEYKLEVWDSPNSAGVIIDAVRAAKIAKDRGIGGPVIPASAYLMKSPPEQLPDDIARAQLEEFIIG :: soluble
MSLPINDQRFNGEDWINNPFFNLLSQHYLLANEHMNSLLENMEYGDENLAKRVRFFTRQYLDALSPANFIHTNPQLMAETLQSHGKNLLRGLHNLLSDVEAGSSRLIIKMTDTEAFKIGENLATTPGKVIFRNSMMELIQYCPRTTKAKSIPLLIVPPWINKYYILDLSPHNSLIRWLVEQGITVFIISWVNPDEEGHHHHHH :: not soluble
MMKKILVACGTGMSTSTMIAQKLQDFLAEQGIAATTAQCCLNEIPLNCNGMDLIVTSMRTHSDYGIPTLNGAALLTGINDDALKQEIKALLTQ :: not soluble

input: Form field: reported soluble on expression in E. coli of SNAMKRSIEDTPIVLIGAGNLATNLAKALYRKGFRIVQVYSRTEESARELAQKVEAEYTTDLAEVNPYAKLYIVSLKDSAFAELLQGIVEGKREEALMVHTAGSIPMNVWEGHVPHYGVFYPMQTFSKQREVDFKEIPFFIEASSTEDAAFLKAIASTLSNRVYDADSEQRKSLHLAAVFTCNFTNHMYALAAELLKKYNLPFDVMLPLIDETARKVHELEPKTAQTGPAIRYDENVIGNHLRMLADDPAMQRLYELLSRSIHERQ
output: soluble

input: Further, for MYPLTLLRISRNRIVELELKNNDQLRGLLHKCDMAMNLHLKSVTIQKEDGSSIFINECYLKGTSIRLVKLESKILLEQREECVSNNKA ?
output: not soluble
